target: antiserum B1; assay: competition ELISA: peptide added to B1 on plate-bound hTNFα
Quick list: OD450 with peptide per entry.
observation type: OD450 with peptide

1. VRSSSRTPSDKPVAH [hTNFα peptide T(1-15)] ... 1.1
2. VNLLSAIKSPCQRET [hTNFα peptide T(91-105)] ... 1.17
3. RRANALLANGVELRD [hTNFα peptide T(31-45)] ... 0.106
4. SDKPVAHVVANPQAE [hTNFα peptide T(9-23)] ... 1.06
5. NGVELRDNQLVVPSE [hTNFα peptide T(39-53)] ... 1.01
